TESTED ON: CES2 (cocaine esterase) (Homo sapiens, UniProt O00748)
Sequence (O00748 whole entry): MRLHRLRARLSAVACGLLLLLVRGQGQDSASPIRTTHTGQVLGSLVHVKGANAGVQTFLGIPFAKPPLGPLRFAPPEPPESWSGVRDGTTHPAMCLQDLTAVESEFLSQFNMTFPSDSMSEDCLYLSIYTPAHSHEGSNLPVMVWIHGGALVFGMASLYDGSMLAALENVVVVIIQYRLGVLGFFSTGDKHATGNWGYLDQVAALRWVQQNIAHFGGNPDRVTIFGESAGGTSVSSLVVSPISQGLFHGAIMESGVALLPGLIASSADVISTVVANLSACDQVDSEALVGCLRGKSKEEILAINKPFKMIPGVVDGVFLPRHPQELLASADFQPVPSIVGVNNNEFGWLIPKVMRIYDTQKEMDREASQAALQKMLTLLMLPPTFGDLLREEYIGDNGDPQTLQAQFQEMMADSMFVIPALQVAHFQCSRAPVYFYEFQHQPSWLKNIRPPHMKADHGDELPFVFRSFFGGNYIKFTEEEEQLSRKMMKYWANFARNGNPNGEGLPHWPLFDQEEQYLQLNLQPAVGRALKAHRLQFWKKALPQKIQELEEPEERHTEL
TEST SUMMARY: Inhibition of human intestinal CES2 expressed in baculovirus infected sf9 cells at 10 uM using o-nitrophenyl acetate as substrate monitored at 15 secs interval for 5 mins relative to control
APPLIED CONDITIONS: probe o-nitrophenyl acetate
Let's look at some compounds and their measured inhibition at 5 min, 10 µM.
Give just the number in %; leave the unit off.

Solved cases below.
Cc1ccc(N(C)C2=CC(=O)C(=O)c3ccccc32)cc1: 25
CN(C1=CC(=O)C(=O)c2ccccc21)c1ccc(F)cc1: 19
CN(C1=CC(=O)C(=O)c2ccccc21)c1ccc(Cl)cc1: 30
O=C1C=C(Nc2ccc(Br)cc2)c2ccccc2C1=O: 12
O=C1C=C(Nc2ccc(F)cc2)c2ccccc2C1=O: 14

Recorded inhibition at 5 min, 10 µM (compound O=C1C=C(Nc2ccc(I)cc2)c2ccccc2C1=O ): 10

Recorded inhibition at 5 min, 10 µM (compound O=C1C=C(Nc2ccc(Cl)cc2)c2ccccc2C1=O ): 22

====

TEST SUMMARY: Drug metabolism in DMSO/sodium phosphate buffer assessed as tautomerization at pH 3 to 11 by UV-spectroscopic method
Type: physicochemical
QUANTITY KIND: Drug metabolism

CN(C1=CC(=O)C(=O)c2ccccc21)c1ccccc1: Metabolite_Notdetected
O=C1C=C(Oc2ccccc2)c2ccccc2C1=O: Metabolite_Notdetected
CN(C1=CC(=O)C(=O)c2ccccc21)c1ccc(F)cc1: Metabolite_Notdetected
O=C1C=C(Oc2ccc(F)cc2)c2ccccc2C1=O: Metabolite_Notdetected

====

TESTED ON: UniProtKB O00748
Sequence (O00748 whole entry): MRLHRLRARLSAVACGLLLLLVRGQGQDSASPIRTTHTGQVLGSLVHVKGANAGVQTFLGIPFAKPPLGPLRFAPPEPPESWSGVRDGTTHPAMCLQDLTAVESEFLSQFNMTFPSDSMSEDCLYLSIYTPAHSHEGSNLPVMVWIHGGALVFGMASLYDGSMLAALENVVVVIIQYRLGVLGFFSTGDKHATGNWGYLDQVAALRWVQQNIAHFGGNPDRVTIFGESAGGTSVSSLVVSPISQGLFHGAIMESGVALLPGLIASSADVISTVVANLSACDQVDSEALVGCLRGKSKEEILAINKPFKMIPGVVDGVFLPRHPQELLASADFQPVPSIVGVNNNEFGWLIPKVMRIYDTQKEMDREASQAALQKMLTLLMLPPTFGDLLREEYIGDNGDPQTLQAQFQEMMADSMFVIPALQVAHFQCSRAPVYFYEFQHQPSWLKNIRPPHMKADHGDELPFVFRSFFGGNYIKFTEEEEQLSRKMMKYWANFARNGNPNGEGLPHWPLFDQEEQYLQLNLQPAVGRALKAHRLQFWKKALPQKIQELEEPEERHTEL
QUANTITY KIND: pKi
Scale for pKi: -log10 of concentration given in mol/L; no unit attached.

CN(C1=CC(=O)C(=O)c2ccccc21)c1ccc(I)cc1: 6.55

Now turn to the next molecule.
Entry CN(C1=CC(=O)C(=O)c2ccccc21)c1ccc(Br)cc1 : pKi on UniProtKB O00748 = 5.74

====

TESTED ON: CES1 (liver carboxylesterase 1) (Homo sapiens)
Sequence (P23141 whole entry): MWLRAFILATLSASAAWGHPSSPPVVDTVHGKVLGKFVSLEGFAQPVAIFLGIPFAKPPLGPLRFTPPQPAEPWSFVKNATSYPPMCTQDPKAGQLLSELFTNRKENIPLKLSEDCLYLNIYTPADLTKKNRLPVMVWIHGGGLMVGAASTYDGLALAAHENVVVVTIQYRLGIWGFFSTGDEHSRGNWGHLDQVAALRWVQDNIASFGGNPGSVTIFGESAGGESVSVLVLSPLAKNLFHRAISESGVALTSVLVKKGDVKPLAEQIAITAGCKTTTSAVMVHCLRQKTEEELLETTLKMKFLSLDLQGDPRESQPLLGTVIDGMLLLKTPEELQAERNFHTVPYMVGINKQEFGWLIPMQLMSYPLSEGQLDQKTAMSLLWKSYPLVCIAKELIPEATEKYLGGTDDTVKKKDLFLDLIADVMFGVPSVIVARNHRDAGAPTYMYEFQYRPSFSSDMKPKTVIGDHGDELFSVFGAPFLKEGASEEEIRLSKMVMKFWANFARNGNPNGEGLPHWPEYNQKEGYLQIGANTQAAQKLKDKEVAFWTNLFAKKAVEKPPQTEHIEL
TEST SUMMARY: Inhibition of human liver CES1 expressed in U373MG cells assessed as oseltamivir carboxylate formation at 5 uM using oseltamivir as substrate preincubated for 30 mins followed by compound washout and subsequent compound/substrate addition measured after 30 mins by UPLC-MS method relative to control
Type: cell-based
Design: scale not given: the % may be the effect or the level left
APPLIED CONDITIONS: U373MG cells expressing human liver CES1, probe oseltamivir, read-out: Activity
// map activity at 0.5 h, 5 µM to label using low group: < 8%; middle group: ≥ 8% and < 20%; high group: ≥ 20%

CN(C1=CC(=O)C(=O)c2ccccc21)c1ccc(Br)cc1: middle group

[Q] Hello team, could you let me know which band the following compound falls into: O=C1C=C(Oc2ccc(F)cc2)c2ccccc2C1=O
[A] high group

[Q] Hello team, could you let me know which band the following compound falls into: Cc1ccc(OC2=CC(=O)C(=O)c3ccccc32)cc1
[A] middle group

====

Let's look at some molecules and their measured pKi.
TESTED ON: UniProtKB P23141
TEST SUMMARY: Inhibition of human liver CES1 expressed in baculovirus infected sf9 cells using oseltamivir as substrate
Scale for pKi: -log10 of concentration given in mol/L; no unit attached.

CN(C1=CC(=O)C(=O)c2ccccc21)c1ccc(Cl)cc1: 7.89
CN(C1=CC(=O)C(=O)c2ccccc21)c1ccc(I)cc1: 6.83
Cc1ccc(N(C)C2=CC(=O)C(=O)c3ccccc32)cc1: 8.31

Entry COc1ccc(N(C)C2=CC(=O)C(=O)c3ccccc32)cc1 : pKi on UniProtKB P23141 = 7.75

Entry CN(C1=CC(=O)C(=O)c2ccccc21)c1ccc(F)cc1 : pKi on UniProtKB P23141 = 7.42

Entry CN(C1=CC(=O)C(=O)c2ccccc21)c1ccc(Br)cc1 : pKi on UniProtKB P23141 = 7.76

Entry CN(C1=CC(=O)C(=O)c2ccccc21)c1ccccc1 : pKi on UniProtKB P23141 = 7.49

====

TESTED ON: UniProt:O00748
TEST SUMMARY: Inhibition of human intestinal CES2 expressed in U373MG cells assessed as 7-ethyl-10-hydroxycamptothecin formation at 5 uM using irinotecan as substrate preincubated for 1 hr followed by substrate addition measured after 5 mins by HPLC method relative to control
Format: cell-based
Parameters: scale not given: the % may be the effect or the level left
APPLIED CONDITIONS: U373MG cells expressing human intestinal CES2, probe irinotecan, read-out: Activity
Let's look at some compounds and their measured activity at 5 min, 5 µM.
# output: numeric value plus its unit

Entry CN(C1=CC(=O)C(=O)c2ccccc21)c1ccc(Br)cc1 : activity at 5 min, 5 µM on UniProt:O00748 = 89%

Entry COc1ccc(N(C)C2=CC(=O)C(=O)c3ccccc32)cc1 : activity at 5 min, 5 µM on UniProt:O00748 = 77%

Entry CN(C1=CC(=O)C(=O)c2ccccc21)c1ccc(Cl)cc1 : activity at 5 min, 5 µM on UniProt:O00748 = 91%

====

TESTED ON: CES1 (liver carboxylesterase 1) (Homo sapiens)
TEST SUMMARY: Inhibition of human liver CES1 expressed in baculovirus infected sf9 cells at 10 uM using o-nitrophenyl acetate as substrate monitored at 15 secs interval for 5 mins relative to control
APPLIED CONDITIONS: probe o-nitrophenyl acetate
QUANTITY KIND: inhibition at 5 min, 10 µM (%)
Give just the number in %; leave the unit off.

Solved cases below.
O=C1C=C(Nc2ccc(F)cc2)c2ccccc2C1=O: 40
O=C1C=C(Nc2ccccc2)c2ccccc2C1=O: 30
Cc1ccc(NC2=CC(=O)C(=O)c3ccccc32)cc1: 44
O=C1C=C(Nc2ccc(Br)cc2)c2ccccc2C1=O: 26
O=C1C=C(Nc2ccc(Cl)cc2)c2ccccc2C1=O: 33

Entry COc1ccc(NC2=CC(=O)C(=O)c3ccccc32)cc1 : inhibition at 5 min, 10 µM on CES1 (liver carboxylesterase 1) (Homo sapiens) = 26

Entry O=C1C=C(Nc2ccc(I)cc2)c2ccccc2C1=O : inhibition at 5 min, 10 µM on CES1 (liver carboxylesterase 1) (Homo sapiens) = 41

====

TESTED ON: Liver carboxylesterase 1 (Homo sapiens, UniProt P23141)
Sequence (P23141 whole entry): as above
TEST SUMMARY: Inhibition of human liver CES1 expressed in baculovirus infected sf9 cells using o-nitrophenyl acetate as substrate monitored at 15 secs interval for 5 mins
QUANTITY KIND: pKi
Scale for pKi: -log10 of concentration given in mol/L; no unit attached.

Solved cases below.
CC1(C)CCC2=C(O1)c1ccccc1C(=O)C2=O: 5.91
CN(C1=CC(=O)C(=O)c2ccccc21)c1ccccc1: 7.05
O=C1C=C(Oc2ccc(F)cc2)c2ccccc2C1=O: 7.34

Entry COc1ccc(OC2=CC(=O)C(=O)c3ccccc32)cc1 : pKi on Liver carboxylesterase 1 (Homo sapiens, UniProt P23141) = 7.75

Entry O=C1C=C(Oc2ccc(Cl)cc2)c2ccccc2C1=O : pKi on Liver carboxylesterase 1 (Homo sapiens, UniProt P23141) = 7.72

Entry CN(C1=CC(=O)C(=O)c2ccccc21)c1ccc(Br)cc1 : pKi on Liver carboxylesterase 1 (Homo sapiens, UniProt P23141) = 7.79

Entry O=C1C=C(Oc2ccc(Br)cc2)c2ccccc2C1=O : pKi on Liver carboxylesterase 1 (Homo sapiens, UniProt P23141) = 7.84

Entry CN(C1=CC(=O)C(=O)c2ccccc21)c1ccc(Cl)cc1 : pKi on Liver carboxylesterase 1 (Homo sapiens, UniProt P23141) = 7.72

Entry COc1ccc(N(C)C2=CC(=O)C(=O)c3ccccc32)cc1 : pKi on Liver carboxylesterase 1 (Homo sapiens, UniProt P23141) = 7.09

Entry CN(C1=CC(=O)C(=O)c2ccccc21)c1ccc(F)cc1 : pKi on Liver carboxylesterase 1 (Homo sapiens, UniProt P23141) = 6.79

Entry Cc1ccc(N(C)C2=CC(=O)C(=O)c3ccccc32)cc1 : pKi on Liver carboxylesterase 1 (Homo sapiens, UniProt P23141) = 7.95
